- Assayed system: HLA-DR DRB1*1302 (DR13) (Homo sapiens, UniProt P01903+P01911, A100E/A169T/K41T/L162R/M171V/P40S/Q125H/Q178H/Q39Y/Q99D/R42S/S66N/T262R/V115G/W38E/Y61H)
- Sequence (P01903 26-254 limits assumed, other chains not shown): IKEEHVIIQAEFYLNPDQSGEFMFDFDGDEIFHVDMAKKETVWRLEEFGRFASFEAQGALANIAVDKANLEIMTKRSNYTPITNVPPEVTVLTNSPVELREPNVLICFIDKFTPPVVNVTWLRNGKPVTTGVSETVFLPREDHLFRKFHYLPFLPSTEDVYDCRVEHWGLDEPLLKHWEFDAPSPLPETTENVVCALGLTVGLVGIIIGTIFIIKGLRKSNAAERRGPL
- Protocol: biochemical
- Format: binding
Recorded pIC50, one value per entry.
Note on units: pIC50 is unitless, being -log10 of a concentration expressed in mol/L.

Form: molecule = `CC[C@H](C)[C@H](NC(=O)[C@H](Cc1ccc(O)cc1)NC(=O)[C@@H]1CCCN1)C(=O)N[C@@H](CC(C)C)C(=O)N[C@@H](CC(C)C)C(=O)N[C@H](C(=O)N[C@@H](CO)C(=O)N[C@@H](CO)C(=O)N[C@@H](CCCCN)C(=O)N[C@H](C(=O)N[C@@H](CO)C(=O)N[C@H](C(=O)N[C@H](C(=O)N[C@@H](CCCCN)C(=O)N[C@@H](CC(=O)O)C(=O)O)C(C)C)[C@@H](C)O)C(C)C)C(C)C` ; pIC50 = 8.14

Form: molecule = `CC[C@H](C)[C@H](NC(=O)[C@H](CCCCN)NC(=O)[C@H](CC(N)=O)NC(=O)[C@@H](NC(=O)[C@@H](NC(=O)[C@H](CC(C)C)NC(=O)[C@@H](NC(=O)[C@H](CO)NC(=O)[C@H](CC(C)C)NC(=O)[C@H](C)NC(=O)[C@H](CCC(=O)O)NC(=O)CN)[C@@H](C)O)C(C)C)C(C)C)C(=O)N[C@@H](CCCNC(=N)N)C(=O)NCC(=O)N[C@H](C(=O)O)[C@@H](C)O` ; pIC50 = 7.26
